assay summary: Cytotoxicity against human BEAS2B cells after 72 hrs by MTT assay
Type: cell-based, BEAS-2B
study conditions: BEAS2B cells
Note to self: use rule met only for GI50 at 72 h readings below 10 µM; a reading exactly at 10 µM still gets rule not met.

// known answers, use as guide
[[record]]
compound_string = "Cc1ccc(OC(=O)Nc2ccc([Se]C#N)cc2)cc1"
class_assignment = "rule met"

[[record]]
compound_string = "CCCOC(=O)Nc1ccc([Se]C#N)cc1"
class_assignment = "rule not met"

[[record]]
compound_string = "O=C(Nc1ccc([Se][Se]c2ccc(NC(=O)OCC3c4ccccc4-c4ccccc43)cc2)cc1)OCC1c2ccccc2-c2ccccc21"
class_assignment = "rule met"

[[record]]
compound_string = "C=CCOC(=O)Nc1ccc([Se][Se]c2ccc(NC(=O)OCC=C)cc2)cc1"
class_assignment = "rule not met"

[[record]]
compound_string = "COc1ccc(OC(=O)Nc2ccc([Se][Se]c3ccc(NC(=O)Oc4ccc(OC)cc4)cc3)cc2)cc1"
class_assignment = "rule met"

[[record]]
compound_string = "O=C(Nc1ccc([Se][Se]c2ccc(NC(=O)Oc3ccccc3)cc2)cc1)Oc1ccccc1"
class_assignment = "rule met"

[[record]]
compound_string = "CCCCOC(=O)Nc1ccc([Se][Se]c2ccc(NC(=O)OCCCC)cc2)cc1"
class_assignment = "rule not met"


Here's the next entry for you.
Query string: Does the reported GI50 at 72 h of `CCCCOC(=O)Nc1ccc([Se]C#N)cc1` stay below 10 µM?
Result string: rule met

---

assay summary: Antioxidant activity assessed as DPPH radical scavenging activity at 0.5 mg/ml after 180 mins
Format: physicochemical
study conditions: 3 h
readout name: inhibition (INH) (%)
Give the quantity in %, number only.

# example entries with known answers
[[record]]
compound_string = "O=C(Nc1ccc([Se][Se]c2ccc(NC(=O)Oc3ccccc3)cc2)cc1)Oc1ccccc1"
readout_name = "inhibition (INH)"
numeric_result = 66.9

[[record]]
compound_string = "CCCCOC(=O)Nc1ccc([Se][Se]c2ccc(NC(=O)OCCCC)cc2)cc1"
readout_name = "inhibition (INH)"
numeric_result = 36.1

[[record]]
compound_string = "CCCOC(=O)Nc1ccc([Se][Se]c2ccc(NC(=O)OCCC)cc2)cc1"
readout_name = "inhibition (INH)"
numeric_result = 52.4


Query string: Reported inhibition (INH) for `CC(C)COC(=O)Nc1ccc([Se]C#N)cc1` : what is it?
Result string: 27.1

Query string: Here is the next compound: `O=C(Nc1ccc([Se][Se]c2ccc(NC(=O)OCc3ccccc3)cc2)cc1)OCc1ccccc1`
Result string: 7.4

Query string: Here is the next compound: `CC(C)COC(=O)Nc1ccc([Se][Se]c2ccc(NC(=O)OCC(C)C)cc2)cc1`
Result string: 66.5

---

Each entry below lists one item and its recorded TGI value.
Test system: HT-29
assay summary: Cytotoxicity against human HT-29 cells after 72 hrs by MTT assay
Type: functional
study conditions: HT-29, 72 h
Give the quantity in µM, number only.

Query string: Query TGI on HT-29 for `N#C[Se]c1ccc(NC(=O)OCc2ccc([N+](=O)[O-])cc2)cc1`
Result string: 47.1

Query string: Here is the next compound: `N#C[Se]c1ccc(NC(=O)Oc2ccc(Cl)cc2)cc1`
Result string: 40.3

---

assay summary: Antioxidant activity assessed as ABTS radical scavenging activity by measuring Trolox equivalent antioxidant capacity after 6 mins
Type: physicochemical
study conditions: 0.1 h
Note to self: use Criterion met only for Activity readings below 10 µg/µL; a reading exactly at 10 µg/µL still gets Criterion not met.

// known answers, use as guide
[[record]]
compound_string = "C=CCOC(=O)Nc1ccc([Se][Se]c2ccc(NC(=O)OCC=C)cc2)cc1"
class_assignment = "Criterion met"

[[record]]
compound_string = "CCCCOC(=O)Nc1ccc([Se]C#N)cc1"
class_assignment = "Criterion met"

[[record]]
compound_string = "O=C(Nc1ccc([Se][Se]c2ccc(NC(=O)OCC3c4ccccc4-c4ccccc43)cc2)cc1)OCC1c2ccccc2-c2ccccc21"
class_assignment = "Criterion met"

[[record]]
compound_string = "CCCOC(=O)Nc1ccc([Se][Se]c2ccc(NC(=O)OCCC)cc2)cc1"
class_assignment = "Criterion not met"

[[record]]
compound_string = "CCCCOC(=O)Nc1ccc([Se][Se]c2ccc(NC(=O)OCCCC)cc2)cc1"
class_assignment = "Criterion met"

[[record]]
compound_string = "CC(C)COC(=O)Nc1ccc([Se][Se]c2ccc(NC(=O)OCC(C)C)cc2)cc1"
class_assignment = "Criterion not met"

[[record]]
compound_string = "N#C[Se]c1ccc(NC(=O)Oc2ccc(F)cc2)cc1"
class_assignment = "Criterion not met"

[[record]]
compound_string = "O=C(Nc1ccc([Se][Se]c2ccc(NC(=O)OCC3=Cc4ccccc4S3(=O)=O)cc2)cc1)OCC1=Cc2ccccc2S1(=O)=O"
class_assignment = "Criterion met"

[[record]]
compound_string = "N#C[Se]c1ccc(NC(=O)Oc2ccc(Cl)cc2)cc1"
class_assignment = "Criterion not met"

[[record]]
compound_string = "N#C[Se]c1ccc(NC(=O)OCc2ccccc2)cc1"
class_assignment = "Criterion met"


Query string: Does the reported Activity of `CC(C)COC(=O)Nc1ccc([Se]C#N)cc1` stay below 10 µg/µL?
Result string: Criterion met

Query string: Here is the next compound: `N#C[Se]c1ccc(NC(=O)OCC2c3ccccc3-c3ccccc32)cc1`
Result string: Criterion met

Query string: Here is the next compound: `CCCOC(=O)Nc1ccc([Se]C#N)cc1`
Result string: Criterion met

Query string: Here is the next compound: `COc1ccc(OC(=O)Nc2ccc([Se]C#N)cc2)cc1`
Result string: Criterion met

Query string: Here is the next compound: `N#C[Se]c1ccc(NC(=O)OCC2=Cc3ccccc3S2(=O)=O)cc1`
Result string: Criterion met

---

assay summary: Cytotoxicity against human BEAS2B cells after 72 hrs by MTT assay
Type: cell-based, BEAS-2B
study conditions: beas-2b, 72 h
readout name: TGI (µM)
Give the quantity in µM, number only.

# example entries with known answers
[[record]]
compound_string = "N#C[Se]c1ccc(NC(=O)OCc2ccc([N+](=O)[O-])cc2)cc1"
readout_unit = "µM"
numeric_result = 32.8

[[record]]
compound_string = "O=C(Nc1ccc([Se][Se]c2ccc(NC(=O)OCC3c4ccccc4-c4ccccc43)cc2)cc1)OCC1c2ccccc2-c2ccccc21"
readout_unit = "µM"
numeric_result = 27.9

[[record]]
compound_string = "N#C[Se]c1ccc(NC(=O)Oc2ccc(F)cc2)cc1"
readout_unit = "µM"
numeric_result = 45.6


// next entry
Query string: Reported TGI for `CC(C)COC(=O)Nc1ccc([Se][Se]c2ccc(NC(=O)OCC(C)C)cc2)cc1` : what is it?
Result string: 42.7

---

assay summary: Antioxidant activity assessed as ABTS radical scavenging activity at 0.1 mg/ml after 6 mins
Assay type: physicochemical
study conditions: 0.1 h
readout name: inhibition (INH) (%)
Give the quantity in %, number only.

# example entries with known answers
[[record]]
compound_string = "CCCOC(=O)Nc1ccc([Se][Se]c2ccc(NC(=O)OCCC)cc2)cc1"
numeric_result = 22.5

[[record]]
compound_string = "CCCCOC(=O)Nc1ccc([Se]C#N)cc1"
numeric_result = 12.6

[[record]]
compound_string = "C=CCOC(=O)Nc1ccc([Se][Se]c2ccc(NC(=O)OCC=C)cc2)cc1"
numeric_result = 10.9

[[record]]
compound_string = "CCCCOC(=O)Nc1ccc([Se][Se]c2ccc(NC(=O)OCCCC)cc2)cc1"
numeric_result = 7.3

[[record]]
compound_string = "CCOC(=O)Nc1ccc([Se]C#N)cc1"
numeric_result = 26.3

[[record]]
compound_string = "CCOC(=O)Nc1ccc([Se][Se]c2ccc(NC(=O)OCC)cc2)cc1"
numeric_result = 21.3


// next entry
Query string: Reported inhibition (INH) for `CC(C)COC(=O)Nc1ccc([Se][Se]c2ccc(NC(=O)OCC(C)C)cc2)cc1` : what is it?
Result string: 29.6

---

Each entry below lists one item and its recorded GI50 value.
assay summary: Cytotoxicity against human PC3 cells after 72 hrs by MTT assay
Assay type: functional
study conditions: PC-3, 72 h
Give the quantity in µM, number only.

[[record]]
compound_string = "N#C[Se]c1ccc(NC(=O)OCC2c3ccccc3-c3ccccc32)cc1"
numeric_result = 2

[[record]]
compound_string = "O=C(Nc1ccc([Se][Se]c2ccc(NC(=O)Oc3ccc(F)cc3)cc2)cc1)Oc1ccc(F)cc1"
numeric_result = 4.9

[[record]]
compound_string = "O=C(Nc1ccc([Se][Se]c2ccc(NC(=O)OCc3ccccc3)cc2)cc1)OCc1ccccc1"
numeric_result = 0.1

[[record]]
compound_string = "CC(C)COC(=O)Nc1ccc([Se][Se]c2ccc(NC(=O)OCC(C)C)cc2)cc1"
numeric_result = 24.2


// next entry
Query string: Reported GI50 for `N#C[Se]c1ccc(NC(=O)OCc2ccccc2)cc1` : what is it?
Result string: 3.7
